# Tested System: Coagulation factor VII/tissue factor (Homo sapiens) (UniProt P08709+P13726)
# Experimental Details: Selectivity for fVIIa/TF complex over fXa
# Assay type: protein-complex assay
Property Name: Ratio Ki

>>> endpoint_value("N=C(N)c1ccc2[nH]c(-c3cc(C(CC(=O)O)C(=O)O)cc(-c4cc(CC(N)=O)ccc4O)c3O)nc2c1 (centres undefined)")
280

1. N=C(N)c1ccc2[nH]c(-c3cc(C(CC(=O)O)C(=O)O)cc(-c4cc(CNC(N)=O)ccc4O)c3O)nc2c1 (centres undefined)
2. N=C(N)c1ccc2[nH]c(-c3cc(C(CC(=O)O)C(=O)O)cc(-c4cc(C(=O)O)ccc4O)c3O)nc2c1 (centres undefined)
3. N=C(N)c1ccc2[nH]c(-c3cc(C(CC(=O)O)C(=O)O)cc(-c4cc(CN)ccc4O)c3O)nc2c1 (centres undefined)
Sort by Ratio Ki, descending. Your answer should be the labels, listed in the requested order.
1, 3, 2

---

# Experimental Details: Plasma clearance in iv dosed baboon
# Type: ADME, organism-based, Papio
Property Name: clearance (mL/min)
// return numeric value only (unit: mL/min, not printed)

Which measured clearance value corresponds to N=C(N)c1ccc2[nH]c(-c3cc(C(CC(=O)O)C(=O)O)cc(-c4cc(CNC(N)=O)ccc4O)c3O)nc2c1 (stereo unspecified) ?
26.5

---

# Tested System: Coagulation factor VII/tissue factor (Homo sapiens) (UniProt P08709+P13726)
# Experimental Details: Selectivity for fVIIa/TF complex over fIIa
# Type: protein-complex assay
Property Name: Ratio Ki

// below: answered molecules
>>> endpoint_value("N=C(N)c1ccc2[nH]c(-c3cc(C(CC(=O)O)C(=O)O)cc(-c4cc(CN)ccc4O)c3O)nc2c1 (centres undefined)")
4200
>>> endpoint_value("N=C(N)c1ccc2[nH]c(-c3cc(C(CC(=O)O)C(=O)O)cc(-c4cc(CCC(=O)O)ccc4O)c3O)nc2c1 (centres undefined)")
11500
>>> endpoint_value("N=C(N)c1ccc2[nH]c(-c3cc(C(CC(=O)O)C(=O)O)cc(-c4cc(NC(N)=O)ccc4O)c3O)nc2c1 (centres undefined)")
3400
>>> endpoint_value("N=C(N)c1ccc2[nH]c(-c3cc(C(CC(=O)O)C(=O)O)cc(-c4cc(CC(=O)O)ccc4O)c3O)nc2c1 (centres undefined)")
12500
>>> endpoint_value("N=C(N)c1ccc2[nH]c(-c3cc(C(CC(=O)O)C(=O)O)cc(-c4cc(C(N)=O)ccc4O)c3O)nc2c1 (centres undefined)")
10700

P. N=C(N)c1ccc2[nH]c(-c3cc(C(CC(=O)O)C(=O)O)cc(-c4cc(C(=O)O)ccc4O)c3O)nc2c1 (centres undefined)
Q. N=C(N)c1ccc2[nH]c(-c3cc(C(CC(=O)O)C(=O)O)cc(-c4cc(CC(N)=O)ccc4O)c3O)nc2c1 (centres undefined)
Compare P and Q by numeric Ratio Ki and name the larger one. # respond with the chosen item's label
Q

---

# Tested System: CYP2D6 (Homo sapiens, UniProt P10635)
# Sequence (P10635 whole entry): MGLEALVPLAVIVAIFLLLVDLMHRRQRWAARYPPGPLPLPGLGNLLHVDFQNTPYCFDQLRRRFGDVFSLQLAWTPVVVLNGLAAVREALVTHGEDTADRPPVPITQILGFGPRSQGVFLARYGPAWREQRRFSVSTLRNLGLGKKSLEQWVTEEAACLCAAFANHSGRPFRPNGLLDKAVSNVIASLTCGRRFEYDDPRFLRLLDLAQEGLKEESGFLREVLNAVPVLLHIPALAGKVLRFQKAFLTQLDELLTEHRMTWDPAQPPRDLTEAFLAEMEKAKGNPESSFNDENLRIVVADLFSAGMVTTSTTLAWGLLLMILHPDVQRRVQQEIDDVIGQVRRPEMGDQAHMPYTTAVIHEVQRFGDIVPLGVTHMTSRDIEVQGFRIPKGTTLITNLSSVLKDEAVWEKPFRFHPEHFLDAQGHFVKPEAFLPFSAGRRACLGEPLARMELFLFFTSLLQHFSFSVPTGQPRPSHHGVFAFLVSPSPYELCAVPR
# Experimental Details: Inhibition of CYP2D6 at 10 uM
# Assay type: ADME
Property Name: inhibition at 10 µM

Provide value of inhibition at 10 µM for this record tested with CYP2D6 (Homo sapiens, UniProt P10635): N=C(N)c1ccc2[nH]c(-c3cc(C(CC(=O)O)C(=O)O)cc(-c4cc(CNC(N)=O)ccc4O)c3O)nc2c1 (stereo unspecified)
< 40%
